Biological target: Fibroblast growth factor receptor 3 (Homo sapiens)
Conditions: at 10 µM
Hi! Just check whether residual activity is below 80%. Below gives true, equal or above gives false.

Solved cases below.
CC[n+]1c(/C=C/N(C)c2ccccc2)n(-c2ccccc2)c2ccc(-c3nc4ccccc4s3)cc21
false
Cc1cc(Nc2nc(-c3ccccc3)nc3ccccc23)n[nH]1
true
COc1ccc(C(=O)Nc2sc3c(c2C(N)=O)CCCC3)cc1OC
false
COc1cc2ncnc(N3CCN(C(=O)Nc4ccc(Oc5ccccc5)cc4)CC3)c2cc1OC
false
CN(C)CCCn1cc(C2=C(c3c[nH]c4ccccc34)C(=O)NC2=O)c2ccccc21
true
Oc1c2ccccc2c2c3c(cccc13)N=N2
true
O=C1Nc2ccccc2/C1=C1/Nc2ccccc2/C1=N\OCCC(O)CO (configuration not stated)
true
Nc1nc(Nc2ccc(S(N)(=O)=O)cc2)nn1C(=S)Nc1c(F)cccc1F
true

stdin: Lab log: compare recorded residual activity with 80%; is it strictly lower for "Oc1ccc(-c2nc(-c3ccc(F)cc3)c(-c3ccncc3)[nH]2)cc1" ?
stdout: false

stdin: Quick check: residual activity of "O=C1NC(=O)c2c1c1c3ccccc3[nH]c1c1[nH]c3cc(Br)ccc3c21" under 80%?
stdout: false
